# Protocol Details: Cytotoxicity against human HL60 cells after 48 hrs by trypan blue exclusion method
# Type: functional, cell-based
# Protocol Conditions: HL-60, 48 h

Molecule	IC50
CCC(C)CNc1cnc2c3c(ccnc13)C=C(OC)C2=O (configuration not stated)	> 10 µg/mL
CNc1cnc2c3c(ccnc13)C=C(OC)C2=O	> 10 µg/mL
CC(=O)O[C@H]1C(=O)[C@@]2(C)[C@H]([C@H](OC(=O)c3ccccc3)[C@]3(O)C[C@H](OC(=O)[C@H](O)[C@@H](NC(=O)c4ccccc4)c4ccccc4)C(C)=C1C3(C)C)[C@]1(OC(C)=O)CO[C@@H]1C[C@@H]2O [PACLITAXEL]	1.5 nM
COC1=Cc2ccnc3c(NCCc4ccccc4)cnc(c23)C1=O	30 nM
CCC(C)c1nc2c(=O)[nH]c3c(OC)c(OC)cc4ccn1c2c43 (configuration not stated)	> 10 µg/mL
COC1=Cc2ccnc3c4c(nc(c23)C1=O)CCCN4	> 10 µg/mL
COC1=Cc2ccnc3c(NCC(C)C)cnc(c23)C1=O	280 nM
